- Tested on: Col2
- experiment_summary: Cytotoxicity against human Col2 cells
- Format: cell-based
- experimental_conditions: col2
metric_name: Activity

INSERT INTO results (molecule, metric_name, result) VALUES
  ('CC1=CCC[C@@H]2[C@@](C)(C[C@H](O)C3=CC(=O)OC3)[C@H](C)CC[C@@]12C', 'Activity', 'Not Active'),
  ('C[C@@H]1CC[C@]2(C(=O)O)CC[C@]3(C)C(=CC[C@@H]4[C@@]5(C)C[C@@H](O)[C@@H](O)C(C)(C)[C@@H]5CC[C@]43C)[C@@H]2[C@]1(C)O [EUSCAPHIC ACID]', 'Activity', 'Not Active'),
  ('C=C1[C@@H](O)CC[C@@H]2[C@@](C)(C[C@H](O)C3=CC(=O)OC3)[C@H](C)CC[C@@]12C', 'Activity', 'Not Active'),
  ('COc1ccc(-c2cc(=O)c3c(O)c(OC)c(OC)cc3o2)cc1 [SALVIGENIN]', 'Activity', 'Not Active');

###

A collection of compounds and their measured CC50
- experiment_summary: Cytotoxicity against human MCF7 cells
- Format: cell-based
- experimental_conditions: MCF7 cells, read-out: ED50 (the source's name)
Give the value in µg/mL but do not write µg/mL after it.

INSERT INTO assay_data (compound, numeric_result) VALUES
  ('CC1=C(C=O)C[C@@H]2[C@@](C)(CCC3=CC(=O)OC3O)[C@H](C)CC[C@@]12C (some centres undefined)', 3.9),
  ('CC1=CCC[C@@H]2[C@@](C)(C[C@H](O)C3=CCOC3=O)[C@H](C)CC[C@@]12C', 2.8),
  ('CC1=CCC[C@@H]2[C@@](C)(CCC3=CC(=O)O[C@H]3O)[C@H](C)CC[C@@]12C', 3.5);

Next up:
Input line: Requested field: CC50. Item: `CC1=CCC[C@@H]2[C@@](C)(/C=C/C3=CC(=O)O[C@H]3O)[C@H](C)CC[C@@]12C`
Output line: 2.7

###

- Test system: HUVEC
- experiment_summary: Cytotoxicity against human HUVEC cells
- Type: cell-based
- experimental_conditions: huvec
metric_name: Activity

Solved cases (6 shown):
INSERT INTO assay_data (smiles_repr, result) VALUES
  ('COc1ccc(-c2cc(=O)c3c(O)c(OC)c(OC)cc3o2)cc1', 'Not Active'),
  ('CC1(C)C(=O)CC[C@@]2(C)[C@H]1CC[C@@]13C[C@H](CC[C@@H]12)[C@@](O)(CO)C3', 'Not Active'),
  ('COc1ccc(-c2cc(=O)c3c(O)cc(OC)cc3o2)cc1', 'Not Active'),
  ('CC1=CCC[C@@H]2[C@@](C)(C[C@H](O)C3=CC(=O)OC3)[C@H](C)CC[C@@]12C', 'Not Active'),
  ('C=C1[C@@H](O)CC[C@@H]2[C@@](C)(CCC3=CC(=O)O[C@H]3O)[C@H](C)CC[C@@]12C', 'Not Active'),
  ('CO[C@@H]1OC(=O)C=C1[C@@H](O)C[C@@]1(C)[C@H](C)CC[C@@]2(C)C(C)=CCC[C@H]12', 'Not Active');

Input line: Param readout= Activity; system= HUVEC; entry= `C[C@@H]1CC[C@]2(C(=O)O)CC[C@]3(C)C(=CC[C@@H]4[C@@]5(C)C[C@@H](O)[C@@H](O)C(C)(C)[C@@H]5CC[C@]43C)[C@@H]2[C@]1(C)O` ; returns value.
Output line: Not Active

Input line: Param readout= Activity; system= HUVEC; entry= `C=C1[C@@H](O)CC[C@@H]2[C@@](C)(C[C@H](O)C3=CC(=O)OC3)[C@H](C)CC[C@@]12C` ; returns value.
Output line: Not Active

###

- experiment_summary: Cytotoxicity against human HUVEC cells
- Assay type: cell-based
- experimental_conditions: HUVEC cells, read-out: ED50 (the source's name)
A collection of compounds and their measured CC50
Give the value in µg/mL but do not write µg/mL after it.

Solved cases (3 shown):
INSERT INTO assay_data (compound, metric_name, units_symbol, numeric_result) VALUES
  ('CC1=CCC[C@@H]2[C@@](C)(C[C@H](O)C3=CC(=O)O[C@H]3O)[C@H](C)CC[C@@]12C', 'CC50', 'µg/mL', 1.8),
  ('CC1=C(C=O)C[C@@H]2[C@@](C)(CCC3=CC(=O)OC3O)[C@H](C)CC[C@@]12C (stereo not given in full)', 'CC50', 'µg/mL', 9.8),
  ('CC1=CCC[C@@H]2[C@@](C)(CCC3=CC(=O)O[C@H]3O)[C@H](C)CC[C@@]12C', 'CC50', 'µg/mL', 4.1);

Next up:
Input line: Requested field: CC50. Item: `CC1=CCC[C@@H]2[C@@](C)(/C=C/C3=CC(=O)O[C@H]3O)[C@H](C)CC[C@@]12C`
Output line: 1.2

###

- experiment_summary: Cytotoxicity against human LNCaP cells
- Assay type: cell-based
- experimental_conditions: LNCaP cells, read-out: ED50 (the source's name)
A collection of compounds and their measured CC50
Give the value in µg/mL but do not write µg/mL after it.

Solved cases (3 shown):
INSERT INTO measurements (compound, numeric_result) VALUES
  ('CC1=CCC[C@@H]2[C@@](C)(C[C@H](O)C3=CCOC3=O)[C@H](C)CC[C@@]12C', 3.3),
  ('CC1=C(C=O)C[C@@H]2[C@@](C)(CCC3=CC(=O)OC3O)[C@H](C)CC[C@@]12C (stereo not given in full)', 4.5),
  ('CC1=CCC[C@@H]2[C@@](C)(CCC3=CC(=O)O[C@H]3O)[C@H](C)CC[C@@]12C', 3.3);

Next up:
Input line: Requested field: CC50. Item: `CC1=CCC[C@@H]2[C@@](C)(C[C@H](O)C3=CC(=O)O[C@H]3O)[C@H](C)CC[C@@]12C`
Output line: 4.1

All values here come from ChEMBL document CHEMBL1142244.
